system: ATP-dependent helicase/nuclease AddAB (Helicobacter pylori 26695); assay: AddAB nuclease inhibitors, single dose, late-stage follow-up, biochemical, radioactivity, purified enzyme, 100 µM, powder samples (AID 602422); conditions: [3H]-dsDNA TCA-soluble nuclease assay, at 100 µM, stronger effect = lower value
metricName: remaining nuclease activity (%)

1) Cc1ccc(C(=O)Nc2sc3c(c2C#N)CCC3)o1	98
2) CCn1cc(C(=O)O)c(=O)c2cnc(N3CCN(C(=S)Nc4ccccc4Cl)CC3)nc21	74
3) CCn1cc(C(=O)O)c(=O)c2cnc(N3CCN(C(=S)Nc4ccccc4C)CC3)nc21	81

A: N#Cc1c(NC(=O)C2CC=CCC2C(=O)O)sc2c1CCC2 (stereo not given)
B: CNC(=O)c1c(NC(=O)c2nc(SCc3ccccc3)ncc2Cl)sc2c1CCCC2
Given A and given B , which shows the smaller recorded remaining nuclease activity? # reply format: chosen label B
(B: 21%, A: 92%)

###

system: ATP-dependent helicase/nuclease AddAB (Helicobacter pylori 26695); experiment: AddAB nuclease inhibitors, single dose, late-stage follow-up, biochemical, radioactivity, purified enzyme, 100 µM, powder samples (AID 602422); conditions: [3H]-dsDNA TCA-soluble nuclease assay, at 100 µM, stronger effect = lower value
metricName: remaining nuclease activity (%)

1) N#Cc1c(NC(=O)c2cnccn2)sc2c1CCCCCC2	70
2) CCn1cc(C(=O)O)c(=O)c2cnc(N3CCN(C(=S)NC)CC3)nc21	101
3) Cn1nccc1C(=O)Nc1sc2c(c1C#N)CCCC2	71
4) CCn1cc(C(=O)O)c(=O)c2cnc(N3CCN(C(=S)NC4CC5CCC4C5)CC3)nc21 (stereo not drawn)	6
5) NC(=O)c1c(NC(=O)c2cnccn2)sc2c1CCCC2	87

I: CCn1cc(C(=O)O)c(=O)c2cnc(N3CCN(C(=S)Nc4ccccc4C(F)(F)F)CC3)nc21
II: N#Cc1c(NC(=O)c2ccccc2C(=O)O)sc2c1CCCC2
Record comparison, field remaining nuclease activity: mark the lower of I and II . Respond with the label that goes with your answer. II

P: COC(=O)c1c(-c2cccc(C)c2)csc1NC(=O)c1cnccn1
Q: COC(=O)c1c(-c2ccccc2)csc1NC(=O)c1cnccn1
Determine, for P and Q , which has the greater value of remaining nuclease activity. Please indicate the selected item by its label. P

P: C=CCNC(=S)N1CCN(c2ncc3c(=O)c(C(=O)O)cn(CC)c3n2)CC1
Q: N#Cc1c(NC(=O)c2cccc(F)c2)sc2c1CCCC2
R: CCn1cc(C(=O)O)c(=O)c2cnc(N3CCN(C(=S)Nc4ccc(Cl)cc4)CC3)nc21
S: N#Cc1c(NC(=O)c2cc(-c3ccccc3)on2)sc2c1CCCC2
T: CCn1cc(C(=O)O)c(=O)c2cnc(N3CCN(C(=S)NC(C)c4ccccc4)CC3)nc21 (stereo not drawn)
Thanks in advance: please rank these 5 entries by remaining nuclease activity, highest to lowest. Thanks in advance for listing the labels in the requested order. P, Q, S, R, T

###

tested on: ATP-dependent helicase/nuclease AddAB (Helicobacter pylori 26695); assay: AddAB nuclease inhibitors, single dose, late-stage follow-up, biochemical, radioactivity, purified enzyme, 100 µM, powder samples (AID 602422); settings: [3H]-dsDNA TCA-soluble nuclease assay, at 100 µM, stronger effect = lower value
metricName: remaining nuclease activity (%)

// below: answered molecules
1) N#Cc1c(NC(=O)c2ccco2)sc2c1CCC2	41
2) CCn1cc(C(=O)O)c(=O)c2cc(F)c(N3CCN(C(=S)Nc4cccc(C(F)(F)F)c4)CC3)cc21	9
3) CCn1cc(C(=O)O)c(=O)c2cnc(N3CCN(C(=S)NC(=O)c4cccc(C)c4)CC3)nc21	95
4) CC1CCc2c(sc(NC(=O)c3ccc([N+](=O)[O-])o3)c2N)C1 (centres undefined)	128
5) CCn1cc(C(=O)O)c(=O)c2cnc(N3CCN(C(=S)Nc4ccccc4OC)CC3)nc21	68

P: Cc1ccc(C(=O)Nc2sc3c(c2C#N)CCCCC3)o1
Q: CCn1cc(C(=O)O)c(=O)c2cnc(N3CCN(C(=S)Nc4cccc(C(F)(F)F)c4)CC3)nc21
Parameter metric = remaining nuclease activity. Return the lower-valued option from P and Q . # respond with the chosen item's label Q
(Q: 8%, P: 72%)

###

tested on: ATP-dependent helicase/nuclease AddAB (Helicobacter pylori 26695); experiment: AddAB nuclease inhibitors, single dose, late-stage follow-up, biochemical, radioactivity, purified enzyme, 100 µM, powder samples (AID 602422); settings: [3H]-dsDNA TCA-soluble nuclease assay, at 100 µM, stronger effect = lower value
metricName: remaining nuclease activity (%)

Here are 8 compounds together with their reported answers.
1) CCn1cc(C(=O)O)c(=O)c2cnc(N3CCN(C(=S)Nc4ccc5c(c4)OCO5)CC3)nc21	46
2) CCn1cc(C(=O)O)c(=O)c2cnc(N3CCN(C(=O)Nc4ccccc4)CC3)nc21	92
3) N#Cc1c(NC(=O)c2ccc([N+](=O)[O-])o2)sc2c1CCCC2	92
4) CC1CCc2c(sc(NC(=O)c3cnccn3)c2C#N)C1 (centres undefined)	91
5) CSc1ncc(Cl)c(C(=O)Nc2sc3c(c2C(=O)NC2CCS(=O)(=O)C2)CCC(C)C3)n1 (centres undefined)	77
6) CCC(C)(C)C1CCc2c(sc(NC(=O)c3cnccn3)c2C#N)C1 (centres undefined)	103
7) CCn1cc(C(=O)O)c(=O)c2cnc(N3CCN(C(=S)NC(=O)c4cccnc4)CC3)nc21	101
8) CC1CCc2c(sc(NC(=O)c3cccs3)c2C#N)C1 (centres undefined)	92

a: CCn1cc(C(=O)O)c(=O)c2cnc(N3CCN(C(=S)NC(=O)c4ccccc4Cl)CC3)nc21
b: CCn1cc(C(=O)O)c(=O)c2cc(F)c(N3CCN(C(=S)Nc4ccccc4C(F)(F)F)CC3)cc21
// pick min by remaining nuclease activity: a , b Response format: the label of the selected entry. b

I: CCn1cc(C(=O)O)c(=O)c2cnc(N3CCNCC3)nc21
II: CCn1cc(C(=O)O)c(=O)c2cnc(N3CCN(C(=S)NCc4ccccc4)CC3)nc21
III: Cc1sc(NC(=O)c2cnccn2)c(C(=O)OC(C)C)c1-c1ccccc1
Place the items in sequence of falling remaining nuclease activity. Rank the items, then write their labels in that order. I, II, III
(I: 103%, II: 55%, III: 33%)

A: CC1CCc2c(sc(NC(=O)c3ccc([N+](=O)[O-])o3)c2C#N)C1 (centres undefined)
B: CCn1cc(C(=O)O)c(=O)c2cnc(N3CCN(C(=S)Nc4ccc(F)cc4)CC3)nc21
Lower value of remaining nuclease activity belongs to which: A or B ? Identify your selection by its label. B
(B: 43%, A: 89%)

P: CCn1cc(C(=O)O)c(=O)c2cnc(N3CCN(C(=S)NC(=O)c4ccco4)CC3)nc21
Q: Cc1sc(NC(=O)c2ccc(Br)o2)c(C#N)c1C
// which entry reports the smaller remaining nuclease activity, P or Q ? Label of pick, please. Q
(Q: 40%, P: 89%)

###

system: ATP-dependent helicase/nuclease AddAB (Helicobacter pylori 26695); experiment: AddAB nuclease inhibitors, single dose, late-stage follow-up, biochemical, radioactivity, purified enzyme, 100 µM, powder samples (AID 602422); details: [3H]-dsDNA TCA-soluble nuclease assay, at 100 µM, stronger effect = lower value
metricName: remaining nuclease activity (%)

1. CSc1ncc(Cl)c(C(=O)Nc2sc3c(c2C#N)CCC(C)C3)n1 (configuration not stated)	100
2. Nc1c(NC(=O)c2ccc([N+](=O)[O-])o2)sc2c1CCCC2	116
3. N#Cc1c(NC(=O)c2ccc(-c3ccccc3[N+](=O)[O-])o2)sc2c1CCCC2	73
4. N#Cc1c(NC(=O)c2ccccc2)sc2c1CCC2	111
5. CC1(C)Cc2c(sc(NC(=O)c3ccco3)c2C#N)CO1	69
6. COC(=O)c1c(NC(=O)c2cnccn2)sc2c1CCCC2	93
7. CCn1cc(C(=O)O)c(=O)c2cnc(N3CCN(C(=S)Nc4ccccc4)CC3)nc21	83
